biological target: Epidermal growth factor receptor (Homo sapiens, UniProt P00533); test: Inhibition of human wild type GST-tagged EGFR kinase domain expressed in Sf9 cells by luminescence assay; assay type: cell-based
Sequence (P00533 whole entry, the tested form may be a part): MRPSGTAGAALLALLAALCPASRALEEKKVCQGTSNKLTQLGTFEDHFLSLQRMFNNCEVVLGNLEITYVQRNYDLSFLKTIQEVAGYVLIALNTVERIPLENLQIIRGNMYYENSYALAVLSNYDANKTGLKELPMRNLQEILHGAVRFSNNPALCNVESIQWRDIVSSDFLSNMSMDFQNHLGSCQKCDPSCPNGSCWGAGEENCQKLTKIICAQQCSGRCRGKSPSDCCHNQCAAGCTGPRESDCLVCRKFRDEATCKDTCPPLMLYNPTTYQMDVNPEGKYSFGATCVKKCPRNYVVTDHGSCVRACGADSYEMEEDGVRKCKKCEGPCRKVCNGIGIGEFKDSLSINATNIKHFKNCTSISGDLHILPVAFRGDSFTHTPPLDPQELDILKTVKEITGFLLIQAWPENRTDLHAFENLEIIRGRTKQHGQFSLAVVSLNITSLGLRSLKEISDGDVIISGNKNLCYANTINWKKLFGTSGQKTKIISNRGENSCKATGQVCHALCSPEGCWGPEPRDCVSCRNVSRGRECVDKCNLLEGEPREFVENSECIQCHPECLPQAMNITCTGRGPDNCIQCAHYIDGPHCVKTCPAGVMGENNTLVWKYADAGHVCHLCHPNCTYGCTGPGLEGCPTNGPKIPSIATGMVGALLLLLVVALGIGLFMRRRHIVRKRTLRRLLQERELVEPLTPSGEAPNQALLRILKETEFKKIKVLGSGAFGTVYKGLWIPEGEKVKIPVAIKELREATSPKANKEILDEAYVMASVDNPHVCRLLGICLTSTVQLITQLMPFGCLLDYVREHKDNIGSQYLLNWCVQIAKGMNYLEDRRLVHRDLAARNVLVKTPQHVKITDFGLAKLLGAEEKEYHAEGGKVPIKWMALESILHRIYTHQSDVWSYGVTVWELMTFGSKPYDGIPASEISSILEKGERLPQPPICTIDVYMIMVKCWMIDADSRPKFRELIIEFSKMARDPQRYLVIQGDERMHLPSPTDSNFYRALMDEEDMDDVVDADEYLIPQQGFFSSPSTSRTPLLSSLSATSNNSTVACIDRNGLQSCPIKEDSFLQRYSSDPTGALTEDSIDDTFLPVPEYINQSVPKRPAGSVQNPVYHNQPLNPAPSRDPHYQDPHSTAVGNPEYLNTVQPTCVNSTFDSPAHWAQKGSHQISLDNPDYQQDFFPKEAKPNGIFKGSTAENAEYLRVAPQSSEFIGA
A collection of compounds and their measured IC50
Give just the number in nM; leave the unit off.

• CN(C)CCCCC(=O)Nc1cccc(-c2c(-c3ccccc3)oc3ncnc(N[C@H](CO)c4ccccc4)c23)c1 = 34

Problem: Please report the recorded IC50 for CC(=O)Nc1cccc(-c2c(-c3ccccc3)oc3ncnc(N[C@H](CO)c4ccccc4)c23)c1 .
Solution: 218

Problem: Please report the recorded IC50 for OC[C@@H](Nc1ncnc2oc(-c3ccccc3)c(-c3ccco3)c12)c1ccccc1 .
Solution: 434

Problem: Please report the recorded IC50 for OC[C@@H](Nc1ncnc2oc(-c3ccccc3)c(Cl)c12)c1ccccc1 .
Solution: 589

src = ChEMBL document CHEMBL2346524
